Hello, the source for this data is the RNAGym collection of RNA variant scans (doi:10.1073/pnas.2313332121), in case you need it.

B1: TPR t1 (parent)
chain: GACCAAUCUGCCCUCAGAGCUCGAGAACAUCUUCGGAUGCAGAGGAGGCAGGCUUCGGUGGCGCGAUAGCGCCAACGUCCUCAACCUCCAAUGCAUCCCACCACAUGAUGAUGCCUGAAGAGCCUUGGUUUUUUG

Variants of: B1
Experiment: polymerase ribozyme fitness, log enrichment relative to wild type (log ratio); higher = more active; in vitro selection for triplet polymerase activity
Class key for polymerase ribozyme fitness (log ratio) values: class 1: < -5; class 2: ≥ -5 and < -1; class 3: ≥ -1

As a guide, the following entries are already answered.
{"columns": ["Residue String", "Assigned Label"],
 "data": [
  ["GACCAAUCUGUCCUCAGAGCUCGAGAACAUCUUCGGAUGCAGAGGAGGCAGGCUUCGGUGGCGCGAUAGCGCCAACGUCCUCAACCUCCAAUGCAUCCCACCACAUGAUGAUGCCUGAAUAGCCUUGGUUUUUUG [C11U G120U]", "class 3"],
  ["GACCAAUCUGCCCUCAGAGCUCGAGAACAUCUUCGGAUGCAGAGGAGGCAGGCUUCGGUGGUGCGAUAGCGCCAACGUCCUCAACCUCCAAUGCAUCCCACCACAUCAUGAUGCCUGAAGAGCCUUGGUUUUUUG [C62U G107C]", "class 1"],
  ["GACCAAUCUGCCCUCAGAGCUCGAGAGCAUCUUCGGAUGCUGAGGAGACAGGCUUCGGUGGCGCGAUAGCGCCAACGUCCUCAACCUACAAUGCAUCCCACCACAUGAUGAUGCCUGAAGAGCCUUGGUUUUUUG [A27G A41U G48A C88A]", "class 1"],
  ["GACCAAUCUGCCCUCAGAGCUCGAGAACAUCUUAGGAUGCAGAGGAGGCAGGCUUCGGUGGCGCGAUAGCGCCAACGUCCUAAACCUCCAAUGCAUCCCACCACAUGAUGAAGCCUGAAGAGCCUUGGUUUUUUG [C34A C82A U112A]", "class 2"],
  ["GACCAAUCUGCCCUCAGAGCUCGAGAACAUCUUCGGAUGCAUAGGAGGCAGGCUUCGGUGGCCCGAUAGCGCCAAAUUCCUCAACCUCCUAUGCAUCCCACCACAUGAUGAUGCCUCAAGAGCCUUUCUUUUUUG [G42U G63C C76A G77U A90U G117C G127U G128C]", "class 2"]
]}

Incoming: Form: Item = GACCAAUCUGCCCUCAGAGCUCGAGAACAUCUUCGGAUGCAGAGGAGGCAGGCUUCGGUGGCGCGAUAGCGACAACGUCCUCAACCUCCAAUGCAUCCCACCACAUGAUGAUGCCUGAAGAGCCUUGGUUUUUUC [C72A G135C] ; Class = ?
Outgoing: class 3

Incoming: The entry to classify is GACCAAUCUGCCCUCAGAGCUCGAGAACAUCUUCGGAUGCAGAGGAGGCAGGCUUCGGUGGCGCGUUAGCGCCAACGUCCUCAACCUCCAAUCCAUCCCACCACAUGAUGAUGCUCGAAGAGCCUUGGUUUUUUG [A66U G93C C115U U116C] ; which class holds it?
Outgoing: class 1

Incoming: # bin label for GACCAAUCUGCCCUCAGAGCUCGAGAACAUCUUCGGAUGCAGAGGAAGCAUGCUACGGUGGCGCGAUAGCGCCAACGUCCUCAACCUCCAAUGCAUCACACCACAUGAUGAUCCCUGAAGAGCCUUGGUUUUUUG [G47A G51U U55A C98A G113C]
Outgoing: class 1
